# SYSTEM NAME: human somatostatin receptor subtype SSTR5 (Homo sapiens, UniProt P35346)
# Sequence (P35346 whole entry): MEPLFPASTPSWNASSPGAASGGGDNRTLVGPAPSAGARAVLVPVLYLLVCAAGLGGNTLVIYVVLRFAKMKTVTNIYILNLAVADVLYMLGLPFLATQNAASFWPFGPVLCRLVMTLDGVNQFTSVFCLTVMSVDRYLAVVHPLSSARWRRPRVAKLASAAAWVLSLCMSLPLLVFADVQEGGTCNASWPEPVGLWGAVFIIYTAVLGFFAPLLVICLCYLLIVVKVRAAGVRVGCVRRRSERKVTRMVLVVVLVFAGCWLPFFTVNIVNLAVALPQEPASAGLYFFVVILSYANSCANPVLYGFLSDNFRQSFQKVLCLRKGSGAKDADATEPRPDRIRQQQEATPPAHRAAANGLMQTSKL
pKi: −log10 of the molar value.
READOUT LABEL: pKi

Q: // query pKi value for entry Cc1ccc(S(=O)(=O)NC(CCCNC(C)C)C(=O)NC2CCCc3ccccc32)c2ccccc12 (stereo not shown) [Compound 17]
Ans: < 5.00

###

# SYSTEM NAME: human somatostatin receptor subtype SSTR1 (Homo sapiens, UniProt P30872)
# Construct: expressed in transfected cells; host or cells: CHO cells (membranes)
# Sequence (P30872 whole entry): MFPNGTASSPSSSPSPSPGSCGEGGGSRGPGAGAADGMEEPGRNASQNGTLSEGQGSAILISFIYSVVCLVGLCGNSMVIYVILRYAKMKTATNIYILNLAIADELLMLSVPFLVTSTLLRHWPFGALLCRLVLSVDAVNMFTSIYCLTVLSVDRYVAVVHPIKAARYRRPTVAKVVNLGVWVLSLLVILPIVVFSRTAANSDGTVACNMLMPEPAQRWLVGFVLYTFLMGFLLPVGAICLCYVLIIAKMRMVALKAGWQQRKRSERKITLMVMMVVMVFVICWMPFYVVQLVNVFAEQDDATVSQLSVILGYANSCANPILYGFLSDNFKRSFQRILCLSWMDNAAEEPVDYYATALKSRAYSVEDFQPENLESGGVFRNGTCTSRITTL
# ASSAY PROCEDURE: Competition binding with 125I-LTT-sst-28, human somatostatin receptor subtype SSTR1
# CONDITION PARAMETERS: membranes from CHO cells stably transfected with human SSTR1; 125I-LTT-sst-28; Cheng-Prusoff; read-out: Ki (SSTR1)
READOUT LABEL: pKi
Reminder that pKi means the negative base-10 logarithm of the concentration expressed in mol/L.

Q: // query pKi value for entry Cc1ccc(S(=O)(=O)NC(CCCNC(C)C)C(=O)NC2CCCc3ccccc32)c2ccccc12 (stereo not shown) [Compound 17]
Ans: 9.00
